# SYSTEM UNDER TEST: T1, IL10Rα/IL2Rγ receptor (human, UniProt Q13651 22-578; P31785 23-369)
# T1 sequence (looked up) 1: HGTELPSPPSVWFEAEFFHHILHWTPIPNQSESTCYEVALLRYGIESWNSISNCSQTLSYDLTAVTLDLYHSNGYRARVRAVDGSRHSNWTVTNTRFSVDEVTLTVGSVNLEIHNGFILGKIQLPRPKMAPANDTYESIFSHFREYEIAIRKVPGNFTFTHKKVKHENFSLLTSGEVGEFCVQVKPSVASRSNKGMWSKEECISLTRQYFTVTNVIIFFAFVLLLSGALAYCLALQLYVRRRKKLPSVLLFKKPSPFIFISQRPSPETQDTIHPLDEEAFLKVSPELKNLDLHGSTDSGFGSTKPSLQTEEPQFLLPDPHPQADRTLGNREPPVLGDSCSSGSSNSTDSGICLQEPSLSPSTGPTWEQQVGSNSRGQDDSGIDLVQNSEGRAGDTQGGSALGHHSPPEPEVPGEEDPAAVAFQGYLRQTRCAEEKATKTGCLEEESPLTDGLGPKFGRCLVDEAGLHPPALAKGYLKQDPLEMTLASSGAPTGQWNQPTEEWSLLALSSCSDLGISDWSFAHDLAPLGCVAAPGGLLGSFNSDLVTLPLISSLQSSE
# T1 sequence (looked up) 2: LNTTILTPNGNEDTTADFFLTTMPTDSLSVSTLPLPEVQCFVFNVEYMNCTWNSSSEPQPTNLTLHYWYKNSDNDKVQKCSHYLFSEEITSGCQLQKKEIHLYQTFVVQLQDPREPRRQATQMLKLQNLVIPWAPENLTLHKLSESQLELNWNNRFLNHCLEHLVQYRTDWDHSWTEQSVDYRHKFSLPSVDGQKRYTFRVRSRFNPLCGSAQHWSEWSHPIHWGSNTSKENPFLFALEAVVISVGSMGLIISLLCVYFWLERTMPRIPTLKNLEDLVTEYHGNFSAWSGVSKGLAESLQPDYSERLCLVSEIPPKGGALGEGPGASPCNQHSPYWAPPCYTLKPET
# TEST PROTOCOL: cell-based or functional assay
Reported pSTAT3 MFI, Monocytes, 0.001 nM (unstimulated 2116) values for a set of binders
ENDPOINT LABEL: pSTAT3 MFI, Monocytes, 0.001 nM (unstimulated 2116)

BINDER | RECORDED VALUE
DR465(DR240-DR231) (bispecific antibody) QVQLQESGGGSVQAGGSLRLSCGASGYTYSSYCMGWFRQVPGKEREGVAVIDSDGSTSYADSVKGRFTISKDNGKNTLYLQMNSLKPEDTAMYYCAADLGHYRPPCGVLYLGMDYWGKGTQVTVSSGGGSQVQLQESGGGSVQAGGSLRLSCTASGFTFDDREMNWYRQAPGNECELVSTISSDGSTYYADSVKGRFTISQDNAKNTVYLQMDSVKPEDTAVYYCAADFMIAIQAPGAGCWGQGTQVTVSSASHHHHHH | 1970 MFI
DR471(DR241-DR231) (bispecific antibody) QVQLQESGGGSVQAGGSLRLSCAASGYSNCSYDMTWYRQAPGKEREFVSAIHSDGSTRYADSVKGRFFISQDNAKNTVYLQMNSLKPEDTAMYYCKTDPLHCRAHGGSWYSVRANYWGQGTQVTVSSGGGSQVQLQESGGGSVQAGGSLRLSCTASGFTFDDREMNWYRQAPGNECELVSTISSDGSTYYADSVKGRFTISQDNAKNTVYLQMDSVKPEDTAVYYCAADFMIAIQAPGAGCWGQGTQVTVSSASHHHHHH | 2030 MFI
DR441(DR236-DR231) (bispecific antibody) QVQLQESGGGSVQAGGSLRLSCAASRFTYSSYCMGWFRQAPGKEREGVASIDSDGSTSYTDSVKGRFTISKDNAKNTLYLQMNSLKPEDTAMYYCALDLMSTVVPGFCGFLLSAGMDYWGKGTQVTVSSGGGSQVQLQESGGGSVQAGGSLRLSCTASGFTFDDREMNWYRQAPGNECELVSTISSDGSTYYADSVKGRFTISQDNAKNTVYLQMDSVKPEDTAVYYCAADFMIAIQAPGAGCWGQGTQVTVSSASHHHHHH | 2040 MFI
DR395(DR229-DR239) (bispecific antibody) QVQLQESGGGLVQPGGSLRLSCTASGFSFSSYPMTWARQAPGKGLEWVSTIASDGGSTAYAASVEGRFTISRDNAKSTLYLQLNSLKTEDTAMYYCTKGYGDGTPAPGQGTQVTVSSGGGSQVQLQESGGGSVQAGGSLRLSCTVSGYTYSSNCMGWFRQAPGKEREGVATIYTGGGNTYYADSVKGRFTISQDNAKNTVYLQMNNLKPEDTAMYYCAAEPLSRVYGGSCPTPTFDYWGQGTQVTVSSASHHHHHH | 2060 MFI
